B1: CHMP1B WT fused to the Gal4 DNA-binding domain [human] / CHMP1A (positive-control partner of the Gal4-CHMP1B constructs in the two-hybrid assay) [human] (parent complex)
chain 1: MEKHLFNLKFAAKELSRSAKKCDKEEKAEKAKIKKAIQKGNMEVARIHAENAIRQKNQAVNFLRMSARVDAVAARVQTAVTMGKVTKSMAGVVKSMDATLKTMNLEKISALMDKFEHQFETLDVQTQQMEDTMSSTTTLTTPQNQVDMLLQEMADEAGLDLNMELPQGQTGSVGTSVASAEQDELSQRLARLRDQV
chain 2: MDDTLFQLKFTAKQLEKLAKKAEKDSKAEQAKVKKALLQKNVECARVYAENAIRKKNEGVNWLRMASRVDAVASKVQTAVTMKGVTKNMAQVTKALDKALSTMDLQKVSSVMDRFEQQVQNLDVHTSVMEDSMSSATTLTTPQEQVDSLIMQIAEENGLEVLDQLSQLPEGASAVGESSVRSQEDQLSRRLAALRN

Variants of: B1
PROTOCOL TEXT: yeast two-hybrid (β-galactosidase activity); read off a plot
READOUT NAME: response

> print(dat)
                              mutation.name  endpoint.value
1  chain 1 L185A, chain 1 S186A, chain 1 Q187A           ~0.62
2  chain 1 R191A, chain 1 L192A, chain 1 R193A           ~0.54
3              chain 1 R188A, chain 1 L189A           ~0.77
4  chain 1 D194A, chain 1 Q195A, chain 1 V196A           ~0.48
